Please respond with reported protein stability index for every item in the list.
# ASSAY_DETAILS: protein stability index of a GFP-peptide fusion (yeast GPS) (PSI 1-4); higher = more stable; sorted into four equal gates, so the index is relative within each strain
# CONDITION_PARAMETERS: pdr5∆
API note: the answer field is a bare number with no unit suffix.

May I ask what protein stability index has been recorded for NVKVIMATNRADTLDPA [RPT3] ?
2.07

So what's the measured protein stability index for this one? PMPIITFLSEWGMEPLE [RPB2]
2.96

Form field: reported protein stability index of KKEELVEIAYHKCDELI [RPO31]
2.96

Item under review: TEELSITGEKLDTQLND [SMC1] . Reported protein stability index?
2.41

What does the data say about its protein stability index? Entry: FDIYNRDRKLITDKGTV [YJL039C/NUP192]
2.53

# lookup: protein stability index of MTNLTYFLHLSVFNAEL [YCS4]
1.48

Given the entry SSLSFGPENALNVYHYF [YJL039C/NUP192] , report its measured protein stability index.
2.11

---

# ASSAY_DETAILS: protein stability index of a GFP-peptide fusion (yeast GPS) (PSI 1-4); higher = more stable; sorted into four equal gates, so the index is relative within each strain
# CONDITION_PARAMETERS: pdr5∆
QUANTITY_KIND: protein stability index
Answer as a number with no unit attached.

# lookup: protein stability index of NANEISANTNNTCTIST [SWP82]
2.61

Please report the recorded protein stability index for RRSTPFSKIAEYYRIQK [ESC2] .
2.9

Please look up its protein stability index: AACEKLLPPIKIELIKN [RPN12]
2.25

Quick check: protein stability index of YTREFVEAIRRSNQYQR [NUT2] ?
2.18

Return reported protein stability index; argument: SLIKETNQLVLLQKMLN [YML103C/NUP188]
1.29

Consider the sequence KDLQENLLVLRGKNEII [RPO21] and give its measured protein stability index.
1.52

Item under review: AKRAQFRKKRKFELGRQ [RPS8A] . Reported protein stability index?
3.28

Entry under review: EYRDLYTNSVELRSLSK [YMR129W/POM152] . Reported protein stability index?
3.27

Requested read-out: protein stability index. Entry: SVTAQVYKIALRLTEQK [RPC82]
2.19

I have this sequence here, AGALNLASPEVKVHMDS [DIS3] , and I need its recorded protein stability index.
3.4

May I ask what protein stability index has been recorded for IDGCVKIGDLGLARKFH [SSN3] ?
3.33

protein stability index for QANPTEESISKFPDMGS [RPB5] ?
3.26

Name the reported protein stability index value associated with the sequence ESKLRDDLERLKKIRAH [RPS18A]
1.98

Look up protein stability index: DEIKAQRKEIKDRISSC [SMC4]
3.03

Which protein stability index reading was recorded for the sequence NKLLGNVTIAQGGVLPN [HTA1] ?
1.66

Requested field: protein stability index. Item: MYGLTMEWPKDMLKYKE [ITC1]
3.1

Given SPSERIEPLEINIQSFK [BRR2] , state its recorded protein stability index.
2.53

So what does the record say about protein stability index for GNVLINDTLPDEISPEL [SNU114] ?
2.77

Please look up its protein stability index: TQEIRPVNTGVLHVSAK [RRP40]
2.91

Looking for the measured protein stability index of ILTREVQNSTLAQLTSK [RPS1B] , can you help?
2.71

Entry under review: KRLNFSFVGDYMHDTEL [GRR1] . Reported protein stability index?
1.89

Which protein stability index is listed for LRLTEQKSPKIRDPLTQ [RPC82] ?
1.66

What value of protein stability index has been recorded for this entry: FPPNLEKGENPSCVYNL [UBP6]
1.7

Name the reported protein stability index value associated with the sequence ASTGSGKTLAFVIPILI [PRP28]
1.29

Which protein stability index value is on record for TFDGKPTATPSPFRPLE [YMR153W/NUP53] ?
2.15

I would be grateful if you could share the reported protein stability index for VLADALNAINNAEKTGK [RPS22A] .
3.27

Name the reported protein stability index value associated with the sequence GSLTFLDNKGSGEDAEE [YIL149C/MLP2]
3.22

Which protein stability index value belongs to LSDVAFYVQDVYKDNLS [RPO31] ?
1.7

Requested field: protein stability index. Item: QLLDIAEFKKENLADLD [LIN1]
1.55

Quick one: protein stability index of FKGVIVKIVDKDGIRQV [PRE1] ?
3.11

Given the entry EKVRDYENSISKDLRSV [IRR1] , report its measured protein stability index.
1.98

What value of measured protein stability index is listed for KVDATPEESKPINLQNG [YLR335W/NUP2] ?
2.95

Sample GQAIVVHPDYLYGAITE [FAS2] — what was its protein stability index?
1.88

Which protein stability index reading was recorded for the sequence GYKMIPGAKPLQVGDVV [FAS1] ?
2.44

Which protein stability index is listed for NARMPGMPNMPGMPNMP [SRP54] ?
3.25

Requested field: protein stability index. Item: PNLLFSMCGFEVRILPR [PRP8]
1.9

Given the sequence IKIKSLEYEISKLKKET [YIL149C/MLP2] , what is its reported protein stability index?
2.97

Entry under review: LRIVTHLAICLDIINPG [YDL116W/NUP84] . Reported protein stability index?
1.38

Fill blank: measured protein stability index of the sequence GKSEKLSLLLVEDKIPL [SKI6] is ____.
2.79

Give its protein stability index value. Item: EWVKLHRLLQRALFRQL [RMP1]
1.58

Fill blank: measured protein stability index of the sequence TGWNAKTYGISDDIISQ [FAS2] is ____.
1.12

Field request: protein stability index | item: NINATNTSVLMKLKLMI [YCS4]
1.5

Quick one: protein stability index for QQTGLVDAITRCYQPFE [SNU114] ?
2.76

Suppose we examine the sequence ISEVMEDRNQRIKEMYW [FAS1] ; what protein stability index value has been reported?
3.3

Could you tell me which protein stability index is on file for RNNVMLLIATNLKEYNK [SRB8] ?
2.11

Reported protein stability index, sequence TNLISKISLLRPSFQNN [SWP82] : ____
2.69

Looking for the measured protein stability index of SESVGAFLSFLAYRNYW [YJL039C/NUP192] , can you help?
1.97

What does the data say about its protein stability index? Entry: ALVAGIERYPLKVTKKH [RPL27A]
2.51

For LKALSHHYNPKTKKLNL [BRR2] , what is its reported protein stability index?
2.4

I'd like to know its protein stability index. The sequence in question is FPEENIIDAKTRNEQTT [MCD1]
3.16

What measured protein stability index goes with FYDYIKERSIVVGRTTR [REC8] ?
1.72

protein stability index for ANHDDQDDIDEMVENSS [SRP68] ?
3.2

Find the recorded protein stability index belonging to DAPFNKVVLKALFLSKI [RPL18A] and report it.
1.56

---

# ASSAY_DETAILS: protein stability index of a GFP-peptide fusion (yeast GPS) (PSI 1-4); higher = more stable; sorted into four equal gates, so the index is relative within each strain
# CONDITION_PARAMETERS: san1∆
For each record, write down the corresponding protein stability index.
Could you keep your reply to the number by itself?

Fill in: protein stability index of NNKNNSITTGNDNENIV [MED2] is ___
2.95

For the sequence shown here, DFDDFLKLGLVEYLDVN [RET1] , give the reported protein stability index.
3

Which protein stability index reading was recorded for the sequence IGVETGSEPLIQQVVEY [PRP28] ?
2.95

---

# ASSAY_DETAILS: protein stability index of a GFP-peptide fusion (yeast GPS) (PSI 1-4); higher = more stable; sorted into four equal gates, so the index is relative within each strain
# CONDITION_PARAMETERS: pdr5∆
QUANTITY_KIND: protein stability index

// lookup protein stability index for DYSRKQLGYGKFLILNE [NUT1]
2.31

Record request: protein stability index value, item FQDTLYKKIPLLGPTLE [QCR10]
2.94

Record request: protein stability index value, item SGQTFAYGVLDSNYKWD [PRE2]
2.76

I would be grateful if you could share the reported protein stability index for NEDARAIFNNEFDSDDD [RPN4] .
2.87

Recorded protein stability index of VIMALMLMSKIGDVDGL [POP5] , please.
2

I would be grateful if you could share the reported protein stability index for QINPTRETNDDIWRVAG [SNF2] .
2.26

Param item = LGSKKELGISLEHPYGK [SNU114] ; retrieve measured protein stability index.
2.99

---

# ASSAY_DETAILS: protein stability index of a GFP-peptide fusion (yeast GPS) (PSI 1-4); higher = more stable; sorted into four equal gates, so the index is relative within each strain
# CONDITION_PARAMETERS: doa10∆
QUANTITY_KIND: protein stability index
Number only, please.

Look at this sequence and give its reported protein stability index. EYSDNFPVSLSQPSKKS [SIR4]
3.08

Reported protein stability index, sequence LLKYSNETKKRNFLETV [RPL1A] : ____
3

Return reported protein stability index; argument: NDPNAAVNMTQNIMTLP [MED6]
2.97
